kon overview
system: T1, recombinant human VEGF165 (human, UniProt P15692 27-191)
T1 construct: mature; Isoform VEGF165 of the entry; also called hVEGF165; hVEGF
T1 sequence (P15692 other isoform, or with tags, fused parts or gaps): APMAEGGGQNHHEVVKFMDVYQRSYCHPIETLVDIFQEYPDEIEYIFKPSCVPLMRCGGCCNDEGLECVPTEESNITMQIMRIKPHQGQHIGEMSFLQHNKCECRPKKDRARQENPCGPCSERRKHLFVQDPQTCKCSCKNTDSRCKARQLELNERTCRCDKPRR
assay.remarks: Biacore SPR, VEGF immobilized, pH 5
Your reply should be a number followed by the unit it is expressed in.

Completed entries (count: 6):
# binder, kon
data = [
    ("578min_max T84N_V89A (scFv, the VH entry already carries the changes; tied by name; also called Protein Nr; 1009) scFv: EIVMTQSPSTLSASVGDRVIITCQASEIIHSWLAWYQQKPGKAPKLLIYLASTLASGVPSRFSGSGSGAEFTLTISSLQPDDFATYYCQNVYLASTNGANFGQGTKLTVLGGGGGSGGGGSGGGGSGGGGSEVQLVESGGGLVQPGGSLRLSCTASGFSLTDYYYMTWVRQAPGKGLEWVGFIDPDDDPYYATWAKGRFTISRDNSKNTAYLQMNSLRAEDTAVYYCAGGDHNSGWGLDIWGQGTLVTVSS", "801000 M⁻¹ s⁻¹"),
    ("511max_min (scFv, also called Protein Nr; 905) scFv: EIVMTQSPSTLSASVGDRVIITCQASQSINIWLSWYQQKPGKAPKLLIYRASTLASGVPSRFSGSGSGTEFTLTISSLQPDDFATYYCQANYAYSAGYGAAFGQGTKLTVLGGGGGSGGGGSGGGGSGGGGSEVQLVESGGGLVQPGGSLRLSCAASGFSLNTYYMNWVRQAPGKGLEWVSIIAPDDTTYYASWAKSRFTISRDNSKNTLYLQMNSLRAEDTAVYYCAKSGDTTAWGADIWGQGTLVTVSS", "511000 M⁻¹ s⁻¹"),
    ("578min_max V89A (scFv, the VH entry already carries V89A; tied by name; also called Protein Nr; 978) scFv: EIVMTQSPSTLSASVGDRVIITCQASEIIHSWLAWYQQKPGKAPKLLIYLASTLASGVPSRFSGSGSGAEFTLTISSLQPDDFATYYCQNVYLASTNGANFGQGTKLTVLGGGGGSGGGGSGGGGSGGGGSEVQLVESGGGLVQPGGSLRLSCTASGFSLTDYYYMTWVRQAPGKGLEWVGFIDPDDDPYYATWAKGRFTISRDTSKNTAYLQMNSLRAEDTAVYYCAGGDHNSGWGLDIWGQGTLVTVSS", "509000 M⁻¹ s⁻¹"),
    ("578-min (scFv, also called EP578 min; Protein Nr; 820) scFv: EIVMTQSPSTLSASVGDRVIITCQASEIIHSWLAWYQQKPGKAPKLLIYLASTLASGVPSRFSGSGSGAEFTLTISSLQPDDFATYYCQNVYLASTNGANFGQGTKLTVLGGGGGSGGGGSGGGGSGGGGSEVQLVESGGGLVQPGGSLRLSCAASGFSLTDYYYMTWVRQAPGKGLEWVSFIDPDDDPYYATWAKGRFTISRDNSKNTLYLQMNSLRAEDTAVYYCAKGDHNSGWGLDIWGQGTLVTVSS", "1.14e+06 M⁻¹ s⁻¹"),
    ("578minmax FW1.4_DHP (scFv, tied by name only) scFv: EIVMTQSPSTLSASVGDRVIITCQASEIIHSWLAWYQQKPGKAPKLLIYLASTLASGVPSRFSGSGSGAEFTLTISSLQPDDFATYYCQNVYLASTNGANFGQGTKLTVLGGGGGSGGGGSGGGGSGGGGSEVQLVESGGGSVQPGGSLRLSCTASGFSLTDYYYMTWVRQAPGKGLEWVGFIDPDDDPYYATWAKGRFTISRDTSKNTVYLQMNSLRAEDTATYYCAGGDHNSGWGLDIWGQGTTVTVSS", "711000 M⁻¹ s⁻¹"),
    ("511-max (scFv, also called ESBA802) scFv: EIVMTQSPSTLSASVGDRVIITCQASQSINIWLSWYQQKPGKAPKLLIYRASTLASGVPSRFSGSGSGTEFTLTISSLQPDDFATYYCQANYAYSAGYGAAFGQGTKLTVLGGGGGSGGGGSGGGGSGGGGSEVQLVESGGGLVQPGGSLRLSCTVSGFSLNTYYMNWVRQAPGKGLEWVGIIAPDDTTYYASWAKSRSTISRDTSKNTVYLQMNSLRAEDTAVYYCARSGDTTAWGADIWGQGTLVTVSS", "659000 M⁻¹ s⁻¹"),
]

// query So what's the measured kon for this one? 578 wildtype C-His (scFv, not shown: small tags and cut ends, Rabbit wild type single chain) scFv: DVVMTQTPSSVSAAVGDTVTINCQASEIIHSWLAWYQQKPGQPPKLLIYLASTLASGVPSRFKGSGSGTQFTLTISDLECADAAIYYCQNVYLASTNGANFGGGTEVVVKGGGGSGGGGSGGGGSGGGGSQSVEESGGRLVTPGTPLTLTCTASGFSLTDYYYMTWVRLAPGKGLEYIGFIDPDDDPYYATWAKGRFTISRTSTTVNLKMTSPTTEDTATYFCAGGDHNSGWGLDIWGPGTLVTVSL
// result 834000 M⁻¹ s⁻¹

// query So what's the measured kon for this one? 578min_max V89L (scFv, the VH entry already carries V89L; tied by name; also called Protein Nr; 980) scFv: EIVMTQSPSTLSASVGDRVIITCQASEIIHSWLAWYQQKPGKAPKLLIYLASTLASGVPSRFSGSGSGAEFTLTISSLQPDDFATYYCQNVYLASTNGANFGQGTKLTVLGGGGGSGGGGSGGGGSGGGGSEVQLVESGGGLVQPGGSLRLSCTASGFSLTDYYYMTWVRQAPGKGLEWVGFIDPDDDPYYATWAKGRFTISRDTSKNTLYLQMNSLRAEDTAVYYCAGGDHNSGWGLDIWGQGTLVTVSS
// result 875000 M⁻¹ s⁻¹

// query So what's the measured kon for this one? 578-max (scFv, also called EP578max; #821) scFv: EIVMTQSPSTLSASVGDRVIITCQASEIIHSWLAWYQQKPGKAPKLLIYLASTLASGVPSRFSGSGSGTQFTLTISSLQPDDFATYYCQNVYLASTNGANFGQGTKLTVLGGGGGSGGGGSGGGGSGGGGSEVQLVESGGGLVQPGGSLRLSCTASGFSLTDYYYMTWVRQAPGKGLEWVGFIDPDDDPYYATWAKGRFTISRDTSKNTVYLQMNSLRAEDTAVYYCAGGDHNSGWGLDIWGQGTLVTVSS
// result 700000 M⁻¹ s⁻¹
